Assay: yeast growth toxicity, wild-type and mutant, primary screen, cytotoxicity control for eIF2B function restoration project, wild-type and eIF2Bepsilon R284H mutant, A595 (AID 685);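 further: 0% = untreated cell controls and 100% = YPD media blanks without cells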
Settings: S. cerevisiae wild-type growth, A595 turbidity, 16 h; stronger effect = higher value; screened at 25 µM (by protocol)
Among all 30,000 compounds or so, about 80 (0.3%) were called active. This is one part of a sample in which actives are shown more often than they occur.
Property label: growth inhibition (%)

Molecule: OC(CNCC1CCCO1)Cn1c2ccc(Br)cc2c2cc(Br)ccc21 (stereo not given)
Value unit: %
Result value: 86.7
--
Molecule: CCN(CC)CCn1c(=S)[nH]c2ncccc2c1=O
Value unit: %
Result value: 11.5
--
Molecule: O=C(CSc1n[nH]c(-c2cccnc2)n1)Nc1ccnc2ccccc12
Value unit: %
Result value: 1
--
Molecule: Cc1ccc(-c2csc(NC(=O)Cc3cccs3)n2)cc1C
Value unit: %
Result value: 33.1
--
Molecule: O=C(c1ccc(CN2CCOCC2)cc1)N1CCN(c2ccccc2F)CC1
Value unit: %
Result value: 11.9
--
Molecule: CCOc1ccc(NC(=O)CCS(=O)(=O)c2ccc3c(c2)CCCN3C(=O)CC)cc1
Value unit: %
Result value: 10.8
--
Molecule: COc1cccc(N2CC(C(=O)Nc3c(C)cccc3C)CC2=O)c1 (stereo not given)
Value unit: %
Result value: -10.6
--
Molecule: COc1ccc(C)cc1S(=O)(=O)NCCc1ccccc1
Value unit: %
Result value: 4.64
--
Molecule: C=C(C)CSc1nnc(-c2ccc(C)cc2)n1N
Value unit: %
Result value: -3.2
--
Molecule: COC(=O)C1C(=O)NCC1c1ccc(OC)cc1 (stereo not given)
Value unit: %
Result value: 14.6

====

Test: yeast growth toxicity, wild-type and mutant, primary screen, cytotoxicity control for eIF2B function restoration project, wild-type and eIF2Bepsilon R284H mutant, A595 (AID 685);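 further: 0% = untreated cell controls and 100% = YPD media blanks without cells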
Details: S. cerevisiae eIF2Bepsilon-R284H mutant growth, A595 turbidity, 16 h; stronger effect = higher value; screened at 25 µM (by protocol)
Out of some 30,000 compounds screened, about 80 (0.3%) were called active. What follows is part of a selection rich in actives, with near analogues and random picks from the rest.
Property label: growth inhibition (%)

Molecule: CC(C)CC(=O)Nc1cc(C(F)(F)F)ccc1N1CCOCC1
Property label: growth inhibition
Result value: 10.5
//
Molecule: COC(=O)C1C(=O)NCC1c1ccc(OC)cc1 (stereo unspecified)
Property label: growth inhibition
Result value: 10.3
//
Molecule: CCc1c(O)nc(SCC(=O)Nc2ccccc2)n(C(C)CC)c1=O (stereo unspecified)
Property label: growth inhibition
Result value: 12.8
//
Molecule: O=C(Nc1ccccc1-c1nnn(CC(=O)N2CCCc3ccccc32)n1)c1cccc(Cl)c1
Property label: growth inhibition
Result value: 4.35
//
Molecule: O=C(O)CCC(=O)NCc1ccc(C(=O)O)cc1
Property label: growth inhibition
Result value: 16.7
//
Molecule: CCN(CC)C(=O)CSc1ncnc2c1cnn2-c1ccccc1
Property label: growth inhibition
Result value: -12.9
//
Molecule: CCC(=O)N(Cc1ccccc1)c1ccccn1
Property label: growth inhibition
Result value: 15
//
Molecule: CC1CCC2(CC1)NC(=O)N(CC(=O)c1cccn1C)C2=O (stereo unspecified)
Property label: growth inhibition
Result value: -4.76
//
Molecule: c1ccc(CSCCc2ccncc2)cc1
Property label: growth inhibition
Result value: 20
//
Molecule: Cc1cccc(N(CC(=O)N2CCOCC2)S(C)(=O)=O)c1
Property label: growth inhibition
Result value: -23.8
//
Molecule: CCSc1ccccc1C(=O)NCc1ccc(OC)cc1
Property label: growth inhibition
Result value: 10.3
//
Molecule: CCOc1ccc(-c2nc(C)sc2CC(=O)O)cc1
Property label: growth inhibition
Result value: 14.9
//
Molecule: O=C(CCC(=O)OCC(F)(F)C(F)F)NCc1ccccc1
Property label: growth inhibition
Result value: 8.11
//
Molecule: CCN(CC)S(=O)(=O)c1ccc2c3c(cccc13)C(=O)S2
Property label: growth inhibition
Result value: -4.76
//
Molecule: Cc1ccc(N(CC(=O)Nc2cccc(N(C)S(C)(=O)=O)c2)S(C)(=O)=O)cc1
Property label: growth inhibition
Result value: 16.1
//
Molecule: CC(C)N(C(=O)COC(=O)c1ccccc1C(=O)N1CCN(c2ccc(F)cc2)CC1)C(C)C
Property label: growth inhibition
Result value: -1.35
//
Molecule: COc1ccc(S(=O)(=O)NCc2ccc(C(=O)N(C)Cc3ccco3)cc2)cc1
Property label: growth inhibition
Result value: 6.06
//
Molecule: CC(C)NC(=O)C(=O)NCCN1CCN(S(=O)(=O)c2ccc(Cl)cc2)CC1
Property label: growth inhibition
Result value: 7.69
//
Molecule: O=C(C1CCC(C(=O)N2CCCC2)CC1)N1CCCC1 (stereo unspecified)
Property label: growth inhibition
Result value: -12.9
//
Molecule: CCN(CC)C(=O)CSc1nnc(C2CCCCC2)o1
Property label: growth inhibition
Result value: 6.82
//
Molecule: COc1ccc(NC(=O)CC2COc3ccccc3O2)c(OC)c1 (stereo unspecified)
Property label: growth inhibition
Result value: 19.1
//
Molecule: CC1=NN(/C(=N\c2nnc(C)s2)Nc2ccccc2)[C@H](c2ccc(C)cc2)S1
Property label: growth inhibition
Result value: -6.45
//
Molecule: O=S1(=O)C=C(SCCN2CCCC2)c2ccccc21
Property label: growth inhibition
Result value: 13.5
//
Molecule: COC(=O)c1ccc(/C=N\n2c(C)nnc2C)cc1
Property label: growth inhibition
Result value: -3.85
//
Molecule: C=CCc1ccc(OCCOc2cccc(/C=N/n3cnnc3)c2)c(OC)c1
Property label: growth inhibition
Result value: -40.9
//
Molecule: O=S(=O)(NCCOc1cccc2cccnc12)c1ccc(F)cc1
Property label: growth inhibition
Result value: 0
//
Molecule: CCCOc1ccc(C2NC(=O)NC(c3ccccc3)=C2C(C)=O)cc1OCC (stereo unspecified)
Property label: growth inhibition
Result value: 7.89
//
Molecule: COc1ccc(CCNC(=O)CN(c2ccccc2)S(C)(=O)=O)cc1OC
Property label: growth inhibition
Result value: 12.8
//
Molecule: CC1(C)NC(=O)N(CCCCSc2ccc(Cl)cc2)C1=O
Property label: growth inhibition
Result value: 15.6
//
Molecule: COc1cc(C)c(C(C)C)cc1S(=O)(=O)n1ccnc1
Property label: growth inhibition
Result value: -20
//
Molecule: Cc1ccc(OCCCC(=O)Nc2ccc(N3CCOCC3)cc2)cc1
Property label: growth inhibition
Result value: -14.3

src = PubChem BioAssay AID685
